# system-under-test: T1, recombinant human IL-27 (human, UniProt Q14213 21-229; Q8NEV9 29-243)
# T1 construct: Bought from R&D Systems (Cat. 2526-IL); also called hIL-27; rhIL-27
# T1 sequence 1: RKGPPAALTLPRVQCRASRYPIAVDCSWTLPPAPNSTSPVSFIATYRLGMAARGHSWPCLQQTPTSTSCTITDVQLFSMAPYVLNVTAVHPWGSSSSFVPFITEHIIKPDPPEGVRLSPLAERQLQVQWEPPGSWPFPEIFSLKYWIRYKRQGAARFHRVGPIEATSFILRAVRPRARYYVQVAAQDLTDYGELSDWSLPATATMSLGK
# T1 sequence 2: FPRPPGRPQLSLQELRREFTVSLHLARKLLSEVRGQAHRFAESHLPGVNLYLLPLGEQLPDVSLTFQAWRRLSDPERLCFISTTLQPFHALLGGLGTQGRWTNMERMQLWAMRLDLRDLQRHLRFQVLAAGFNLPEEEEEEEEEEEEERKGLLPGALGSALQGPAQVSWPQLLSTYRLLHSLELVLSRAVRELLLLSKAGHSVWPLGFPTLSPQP
# test-description: SPR (Biacore T200), hIL-27 on CM5 chip, single cycle, 1:1 model
# Protocol: The antibodies were further characterized by surface plasmon resonance (SPR). Kinetic experiments were performed on a Biacore T200 (GE Healthcare, Uppsala, Sweden). […] The association phase for the three injections of increasing concentrations of antibody was monitored for 75 seconds each time and a single dissociation phase was measured for 250 seconds following the last injection of antibody. […]
observed-property: Kd (nM)

binder	observed-property	assay-value
Ab7.2 (antibody, human IgG1, kappa, V domains shown, human IgG1/kappa) VH: EVKLVESGGGLVQPGGSLKLFCAASGFTFTSYSMSWVRQTPEKRLEWVAYISYDGGSAYYPDTVKGRFSISRDNAKKTLYLQMSSLKSEDTAMYYCARHGDYDDDDAMDYWGQGTSVTVSS VL: DIQMTQSPSSLSASVGDRVTITCRASENIYSYLAWYQQKQGKAPKLLVYNAETLTEGVPSRFSGSGSGTDFTLTISSLQPEDFANYYCQHHYGTPLTFGQGTKLDIKR	Kd	1.2
Ab7.18 (antibody, human IgG1, kappa, V domains shown, human IgG1/kappa) VH: EVQLVESGGGLVQPGGSLRLSCAASGFTFTSYSMSWVRQAPGKGLEWVAYISYDGGSAYYPDTVKGRFTISRDNSKNTLYLQMNSLRAEDTAVYYCARHGDYDDDDAMDYWGQGTLVTVSS VL: DIQMTQSPSSLSASVGDRVTITCRASENIYSYLAWYQQKPGKAPKLLVYNAETLTEGVPSRFSGSGSGTDFTLTISSLQPEDFATYYCQHHYGTPLTFGQGTKLEIKR	Kd	1.5
Ab7.14 (antibody, human IgG1, kappa, V domains shown, human IgG1/kappa) VH: EVKLVESGGGLVQPGGSLRLSCAASGFTFTSYSMSWVRQAPGKGLEWVAYISYDGGSAYYPDTVKGRFTISRDNSKKTLYLQMNSLRAEDTAVYYCARHGDYDDDDAMDYWGQGTLVTVSS VL: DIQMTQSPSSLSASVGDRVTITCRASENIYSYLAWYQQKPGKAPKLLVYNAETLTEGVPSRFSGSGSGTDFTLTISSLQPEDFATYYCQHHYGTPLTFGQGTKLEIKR	Kd	1.2
Ab7.3 (antibody, human IgG1, kappa, V domains shown, human IgG1/kappa) VH: EVKLVESGGGLVQPGGSLRLSCAASGFTFTSYSMSWVRQAPGKGLEWVAYISYDGGSAYYPDTVKGRFTISRDNSKKTLYLQMSSLKSEDTAMYYCARHGDYDDDDAMDYWGQGTSVTVSS VL: DIQMTQSPASLSASVGETVTITCRASENIYSYLAWYQQKQGKSPQLLVYNAETLTEGVPSRFSGSGSGTQFSLKINSLQPEDFGNYYCQHHYGTPLTFGAGTKLDLKR	Kd	0.96
Ab7.21 (antibody, human IgG1, kappa, V domains shown, human IgG1/kappa) VH: EVQLVESGGGLVQPGGSLRLSCAASGFTFTSYSMSWVRQAPGKGLEWVSYISYDGGSAYYPDTVKGRFTISRDNSKNTLYLQMNSLRAEDTAVYYCARHGDYDDDDAMDYWGQGTLVTVSS VL: DIQMTQSPSSLSASVGDRVTITCRASENIYSYLAWYQQKPGKAPKLLVYNAETLTEGVPSRFSGSGSGTDFTLTISSLQPEDFANYYCQHHYGTPLTFGQGTKLEIKR	Kd	1.5
